# SYSTEM: SMYD2 (Homo sapiens, UniProt Q9NRG4)
# Construct: Full length SMYD2 (NP_064582.2) was cloned; His6 (N, cleaved yes); FLAG (N); made in house; host or cells: Sf9 insect cells
# Sequence (Q9NRG4 whole entry): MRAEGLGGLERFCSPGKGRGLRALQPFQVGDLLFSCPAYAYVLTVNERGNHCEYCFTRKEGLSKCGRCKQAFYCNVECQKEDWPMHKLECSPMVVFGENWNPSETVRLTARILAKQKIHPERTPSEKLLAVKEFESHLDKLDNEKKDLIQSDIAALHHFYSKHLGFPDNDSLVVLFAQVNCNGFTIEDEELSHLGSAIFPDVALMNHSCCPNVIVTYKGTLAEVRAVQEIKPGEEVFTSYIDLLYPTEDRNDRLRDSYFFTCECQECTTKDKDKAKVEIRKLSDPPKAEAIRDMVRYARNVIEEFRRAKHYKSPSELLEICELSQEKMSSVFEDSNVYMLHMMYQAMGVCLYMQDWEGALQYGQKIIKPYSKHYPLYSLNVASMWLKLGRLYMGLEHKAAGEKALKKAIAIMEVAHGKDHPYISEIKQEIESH
# TEST_DETAILS: SMYD2 biochemical assay (3H-SAM, biotinylated peptide substrate, Flashplate)
# EXPERIMENTAL_SETUP: Table 3; average of n = 1 to n = 50; read-out: SMYD2 Biochem IC50
Examples of compounds with documented IC50 follow.

>>> print(df.to_string())
                                   compound  value_measured
0  CC(C)N1C[C@H](C)[C@H](NC(=O)c2ccc3c(c2)OCC(=O)N3)C1 (racemic)         > 50 µM

Inquiry: What measured IC50 goes with CC(C)N1C[C@H](C)[C@H](NC(=O)c2c[nH]c(C3CC3)n2)C1 (racemic) ?
Reply text: > 50 µM

Inquiry: What measured IC50 goes with CC(C)N1C[C@@H](C)[C@H](NC(=O)c2noc(C3CC3)n2)C1 (racemic) ?
Reply text: > 50 µM

Inquiry: What measured IC50 goes with CC(C)N1C[C@H](C)[C@H](NC(=O)c2cn(C(C)C)nn2)C1 (racemic) ?
Reply text: 6.34 µM

Inquiry: What measured IC50 goes with C[C@H]1CN(C)C[C@H]1NC(=O)c1cc(C2CC2)cnn1 (racemic) ?
Reply text: 1.67 µM

Inquiry: What measured IC50 goes with CC(C)N1C[C@H](C)[C@H](NC(=O)c2cnnc(C3CC3)c2)C1 (racemic) ?
Reply text: > 50 µM

Inquiry: What measured IC50 goes with CC(C)N1CC(NC(=O)c2cc(C3CC3)cnn2)CC1C (centres unmarked) ?
Reply text: 11.5 µM

Inquiry: What measured IC50 goes with CC(C)N1C[C@@H](C)[C@@H](NC(=O)c2cnn(C(C)C)c2)C1 (racemic) ?
Reply text: > 50 µM
